assayed system: GII.4 Houston 2002 (ABY27560.1) VLPs (UniProt P54635 1-539)
procedure details: VLP blockade
value kind: EC50

Required: EC50, one value per binder below.
1. NORO-263 (antibody, V domains shown) VH: QVQLVESGGGLVKPGGSLRLSCAASGFTLSDYYMSWIRQAPGKGLEWVAYISSSHTSTYYRDSVKGRFTISRDSAKKSLYLQMNSLRVEDTAIYYCARDWVGGRSAYSDHWGQGTLVTVSS VL: SYELTQPPSVSVSPGQTARITCSGDALPRRPAFWYQQKSGQAPVLVMYDDSKRPSGIPERFSGSSSGTVATLTISGAQVEDEADYHCYSTDSSGKERVFGGGTKLTVL
2. NORO-115 (antibody, V domains shown) VH: QVQLVESGGGLVKPGGSLRLSCTASGITISGYYMSWIRQAPGKGLEWIVYINTSGRTIYYADSVKGRFSVSRDNAKESLYLQMDSLTVDDTGIYYCARDRLPASGSHWFHPWGQGTLVTVSS VL: DIVMTQSPDSLAVSLGGRATINCKSSQSVLYTSDNKNYLAWYQQQPGQPPKLLISWASTRESGVPDRFSGSGSGTDFTLTISNLQAEDVAVYYCQQYYNSPLAFGGGTKVEIK
3. NORO-310A (antibody, V domains shown) VH: EVQLVESGGGLVRPGESLRLSCVASGFSVSDNYMSWVRQAPGKGLQWVSVIYSGGTTFYTDSVKGRFTISRDKSKNTLFLQMNSLRAEDTAVYFCTRDPSQYYDSRGHYYQTFTPSFDSWGQGTLVTVSS VL: DIQMTQSPSVMSASVGDRVTITCRASQDISDYLAWFQQKPGKVPKRLIYAASSLQNGVPSRFSGSGSGTEFTLTISSLQPEDFATYYCLQHDTYPLTFGGGTKVEIK
4. NORO-123 (antibody, V domains shown) VH: QVQLVESGGGVVQPGRSLRLSCSTSGFTFSQYPMHWVRQAPGKGLEWVALISYDGMNKYYADSVRGRFTISRDNSENTQYLQMNSLRGDDTAVYYCARVTGDCTGNRCSYWAYYYYGLDVWGQGTLVTVSS VL: QSALTQPPSASGSPGQSVTISCTGTSSDVGGYKYVSWYQQHPGKAPKLMIYEVTRRPSGVPDRFSGSKSGNTAFLTVSGLQAEDEADYYCGSYAGSTTSGYVFGTGTKVIVL
5. NORO-279A (antibody, V domains shown) VH: QVQLVESGGGVVQPGRSLRLSCAASGFTFTKYGMHWVRQAPGKGLEWVAFIAYDGSVKYYGDSAKGRFAISRDNPKNTVYLQMNSLRAEDTAVYYCAKVEIHYYSNSLLGMDVWGQGTLVTVSS VL: QSVLTQPPSASGTPGQRVTISCSGGNSNIGISYVYWYQHLPGTAPKLLISKNNLRPSGVPDRFSASKSGTSASLAISGLRSEDEAEYYCATLDINMTWVFGGGTKLTVL
6. NORO-251A (antibody, V domains shown) VH: QVQLVESGGGVVQPGRSLRLSCAASGFTFRSYGIHWVRQAPGKGLEWVALISYDGSSKYYADSVKGRFTISRDNSKNTLYLQMNSLRSEDTAVYYCAKVRLTSYSIGWFSFDYWGQGTLVTVSS VL: QSVLTQPPSVSAAPGQKVTISCSGSSSNIANYYVSWYQQLPGRAPKLLIYDNNKRPSGIPDRISGSKSGTSATLGITGLQTGDEADYYCGTWDTSLSAWVFGGGTKLTVL
7. NORO-202A.1 (antibody, V domains shown) VH: QVQLVQSGAEVKKPGASVKVSCKASEYTFTGYYLQWVRQAPGHGLEWMGWINPSGGTKYSQKFQGRVTMTRDTSITTVYMELSRLRSDDTAVYYCARDLLRNWGDHDAFDVWGQGTMVTVSS VL: QSVLTQPPSASETPGQGVTISCSGSSSNIGSNFVCWYQQVPGTAPKLLIYKNNQRPSGVPDRFSGSKSGTSASLAISGLRSEDEADYYCSAWDDSLSGPVFGGGTKLTVL

1. 2.1 µg/mL
2. 2.3 µg/mL
3. > 100 µg/mL
4. 2.5 µg/mL
5. > 100 µg/mL
6. > 100 µg/mL
7. > 100 µg/mL

Origin of values: patent US20210324050A1
